Origin of values: ChEMBL document CHEMBL1201862

Each entry below lists one item and its recorded IC50 value.
system name: Prothrombin (Homo sapiens, UniProt P00734)
experiment description: Thrombin 1536 HTS Dose Response Confirmation. [Related pubchem assays: 1046 (Thrombin 1536 HTS; hits were confirmed in this assay)]
Format: functional
Active and inactive are the calls of the source.

molecule	IC50
COc1ccccc1NC(=O)N1CCCC1C(=O)NC1CCCCC1 (stereo unspecified)	> 50 µM (not active)
Cc1cc(C(=O)CSc2nnnn2C)c(C)n1-c1cccc(F)c1	> 50 µM (not active)
C#CCSc1nncn1C(=O)/C=C/c1ccccc1	0.294 µM (active)
CN(Cc1ccccn1)Cc1nc(-c2ccc(Cl)cc2)no1	> 50 µM (not active)
COc1ccc(C2C=C(c3ccc(Br)cc3)Nc3nc(N4C(=O)CCC4=O)nn32)cc1 (stereo unspecified)	> 50 µM (not active)

IC50 for Prothrombin (Homo sapiens, UniProt P00734) with input CSCc1nc2scc(-c3ccccc3)c2c(=O)[nH]1 equals > 50 µM (not active)

---

system name: Cytochrome P450 2C9 (Homo sapiens, UniProt P11712)
Sequence (P11712 whole entry): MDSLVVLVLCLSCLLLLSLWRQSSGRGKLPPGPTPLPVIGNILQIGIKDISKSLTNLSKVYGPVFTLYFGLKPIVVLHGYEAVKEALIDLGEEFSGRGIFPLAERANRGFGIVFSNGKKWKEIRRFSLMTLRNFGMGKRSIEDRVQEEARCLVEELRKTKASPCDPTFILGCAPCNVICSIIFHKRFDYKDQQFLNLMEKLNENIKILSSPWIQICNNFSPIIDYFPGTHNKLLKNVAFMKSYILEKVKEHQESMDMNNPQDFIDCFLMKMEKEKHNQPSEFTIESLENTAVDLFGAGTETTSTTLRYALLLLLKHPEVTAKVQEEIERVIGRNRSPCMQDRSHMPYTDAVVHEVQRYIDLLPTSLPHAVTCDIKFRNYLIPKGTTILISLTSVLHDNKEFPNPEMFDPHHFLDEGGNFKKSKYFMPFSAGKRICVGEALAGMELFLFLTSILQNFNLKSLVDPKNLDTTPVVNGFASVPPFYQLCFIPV
Listed next: entries and their corresponding AC50.

Consider the following illustrative entries.
compound	AC50
CCCCCSc1nnc(C)c(O)n1	8.91 µM (inconclusive)
O=C(NNC(=O)c1ccccc1O)c1ccc(Cl)cc1	20 µM (inconclusive)
O=[N+]([O-])c1ccc(CSCc2ccc(Cl)cc2)cc1	7.94 µM (inconclusive)

Form: item COc1ccc(C(=O)Nc2cccc(-c3cnc4ccccc4n3)c2)cc1 ; test system Cytochrome P450 2C9 (Homo sapiens, UniProt P11712); AC50: 1.78 µM (inconclusive)

Measured AC50 (Cytochrome P450 2C9 (Homo sapiens, UniProt P11712)), entry CC(=O)NCc1c(Cl)cccc1-n1cccc1 : 28.2 µM (inconclusive)

Fill in: Cytochrome P450 2C9 (Homo sapiens, UniProt P11712) AC50 for c1ccc(-c2nccc(-c3ccc(-n4cnc5ccccc54)cc3)n2)nc1 = 22.4 µM (inconclusive)

Entry CC(Cc1ccccc1)NC(=O)CSc1nc2nc3c(cc2c(=O)n1-c1ccccc1)COC(C)(C)C3 (configuration not stated) : AC50 on Cytochrome P450 2C9 (Homo sapiens, UniProt P11712) = 15.8 µM (inconclusive)

Value sought: AC50, system Cytochrome P450 2C9 (Homo sapiens, UniProt P11712), item O=C(Nc1cccc(F)c1)N1CCCC2(CCN(C(=O)Oc3ccccc3)CC2)C1 . Result: 39.8 µM (inconclusive)

Assay Cytochrome P450 2C9 (Homo sapiens, UniProt P11712), sample CCNc1ncc2ncc(=O)n(Cc3cccs3)c2n1 , AC50 read: 15.8 µM (inconclusive)

// returns AC50 for O=C(N/N=C/c1c[nH]c2ccc(Br)cc12)c1ccn(Cc2ccc(Cl)cc2)n1 with Cytochrome P450 2C9 (Homo sapiens, UniProt P11712); value = 39.8 µM (inconclusive)

Measured AC50 (Cytochrome P450 2C9 (Homo sapiens, UniProt P11712)), entry Cc1ccc2cc(CCNC(=O)c3ccc(Br)o3)c(O)nc2c1 : 10 µM (inconclusive)

// compound Cn1c(=S)c2nc(SCCN3CCCC3)[nH]c2n(C)c1=O , assay Cytochrome P450 2C9 (Homo sapiens, UniProt P11712), AC50 value: 3.16 µM (inconclusive)

---

experiment description: cytotoxicity toward NIH3T3 fibroblasts, dose response, counter-screen, cell-based, ATP luminescence, mouse fibroblasts (AID 2010);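 also: cells exposed to compound for about 90 hours before reading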
Type: functional
The source made the active and inactive calls.
Attribute: EC50

Recorded results for 10 molecules are shown here.
molecule	test readout	meas value
Cc1ccc(-n2nnnc2CNC(=O)c2ccc([N+](=O)[O-])o2)cc1C	EC50	> 30 µM (not active)
CN1CCN(Cc2cccc(Oc3ccc(Cl)cc3)c2)CC1	EC50	> 60 µM (inconclusive)
Cn1c(=O)c(=O)n(C)c2cc(S(=O)(=O)NCCN3CCN(c4ccccc4F)CC3)ccc21	EC50	> 60 µM (not active)
N=C(N)N/N=C/c1ccc(OCc2ccccc2Cl)cc1	EC50	> 60 µM (not active)
O=C(Oc1ccc2ccc(=O)oc2c1)c1ccco1	EC50	> 60 µM (not active)
Cc1nc2ccccn2c1C(=O)N/N=C/c1ccc([N+](=O)[O-])o1	EC50	10.9 µM (active)
C=CCN(C(=O)CSC1=NC(=O)CN1C(C)=O)c1nc(C)c(-c2ccccc2)s1	EC50	> 30 µM (not active)
CC(NCC(O)COCCC12CC3CC(CC(C3)C1)C2)c1ccccc1 (configuration not stated)	EC50	> 60 µM (not active)
COc1ccccc1Nc1ncnc2c1c(C)c(C)n2CCCN(C)C	EC50	4.51 µM (active)
N#C/C(=C\c1ccc(N2CCCCC2)c([N+](=O)[O-])c1)c1nn(-c2ccccc2)c(N)c1C#N	EC50	> 30 µM (not active)

The reported EC50 of the molecule N#Cc1ccc(OCCOCCNC2CCCC2)cc1 was > 60 µM (not active)

Summary for this molecule, Cc1c(O)cccc1C(=O)N[C@@H](CSc1ccccc1)[C@H](O)CN1C[C@H]2CCCC[C@H]2C[C@H]1C(=O)NC(C)(C)C : EC50 is > 60 µM (not active)

---

system name: Voltage-gated N-type calcium channel alpha-1B subunit/Amyloid beta A4 precursor protein-binding family A member 1 (Homo sapiens, UniProt Q00975+Q02410)
Sequence (Q00975 whole entry): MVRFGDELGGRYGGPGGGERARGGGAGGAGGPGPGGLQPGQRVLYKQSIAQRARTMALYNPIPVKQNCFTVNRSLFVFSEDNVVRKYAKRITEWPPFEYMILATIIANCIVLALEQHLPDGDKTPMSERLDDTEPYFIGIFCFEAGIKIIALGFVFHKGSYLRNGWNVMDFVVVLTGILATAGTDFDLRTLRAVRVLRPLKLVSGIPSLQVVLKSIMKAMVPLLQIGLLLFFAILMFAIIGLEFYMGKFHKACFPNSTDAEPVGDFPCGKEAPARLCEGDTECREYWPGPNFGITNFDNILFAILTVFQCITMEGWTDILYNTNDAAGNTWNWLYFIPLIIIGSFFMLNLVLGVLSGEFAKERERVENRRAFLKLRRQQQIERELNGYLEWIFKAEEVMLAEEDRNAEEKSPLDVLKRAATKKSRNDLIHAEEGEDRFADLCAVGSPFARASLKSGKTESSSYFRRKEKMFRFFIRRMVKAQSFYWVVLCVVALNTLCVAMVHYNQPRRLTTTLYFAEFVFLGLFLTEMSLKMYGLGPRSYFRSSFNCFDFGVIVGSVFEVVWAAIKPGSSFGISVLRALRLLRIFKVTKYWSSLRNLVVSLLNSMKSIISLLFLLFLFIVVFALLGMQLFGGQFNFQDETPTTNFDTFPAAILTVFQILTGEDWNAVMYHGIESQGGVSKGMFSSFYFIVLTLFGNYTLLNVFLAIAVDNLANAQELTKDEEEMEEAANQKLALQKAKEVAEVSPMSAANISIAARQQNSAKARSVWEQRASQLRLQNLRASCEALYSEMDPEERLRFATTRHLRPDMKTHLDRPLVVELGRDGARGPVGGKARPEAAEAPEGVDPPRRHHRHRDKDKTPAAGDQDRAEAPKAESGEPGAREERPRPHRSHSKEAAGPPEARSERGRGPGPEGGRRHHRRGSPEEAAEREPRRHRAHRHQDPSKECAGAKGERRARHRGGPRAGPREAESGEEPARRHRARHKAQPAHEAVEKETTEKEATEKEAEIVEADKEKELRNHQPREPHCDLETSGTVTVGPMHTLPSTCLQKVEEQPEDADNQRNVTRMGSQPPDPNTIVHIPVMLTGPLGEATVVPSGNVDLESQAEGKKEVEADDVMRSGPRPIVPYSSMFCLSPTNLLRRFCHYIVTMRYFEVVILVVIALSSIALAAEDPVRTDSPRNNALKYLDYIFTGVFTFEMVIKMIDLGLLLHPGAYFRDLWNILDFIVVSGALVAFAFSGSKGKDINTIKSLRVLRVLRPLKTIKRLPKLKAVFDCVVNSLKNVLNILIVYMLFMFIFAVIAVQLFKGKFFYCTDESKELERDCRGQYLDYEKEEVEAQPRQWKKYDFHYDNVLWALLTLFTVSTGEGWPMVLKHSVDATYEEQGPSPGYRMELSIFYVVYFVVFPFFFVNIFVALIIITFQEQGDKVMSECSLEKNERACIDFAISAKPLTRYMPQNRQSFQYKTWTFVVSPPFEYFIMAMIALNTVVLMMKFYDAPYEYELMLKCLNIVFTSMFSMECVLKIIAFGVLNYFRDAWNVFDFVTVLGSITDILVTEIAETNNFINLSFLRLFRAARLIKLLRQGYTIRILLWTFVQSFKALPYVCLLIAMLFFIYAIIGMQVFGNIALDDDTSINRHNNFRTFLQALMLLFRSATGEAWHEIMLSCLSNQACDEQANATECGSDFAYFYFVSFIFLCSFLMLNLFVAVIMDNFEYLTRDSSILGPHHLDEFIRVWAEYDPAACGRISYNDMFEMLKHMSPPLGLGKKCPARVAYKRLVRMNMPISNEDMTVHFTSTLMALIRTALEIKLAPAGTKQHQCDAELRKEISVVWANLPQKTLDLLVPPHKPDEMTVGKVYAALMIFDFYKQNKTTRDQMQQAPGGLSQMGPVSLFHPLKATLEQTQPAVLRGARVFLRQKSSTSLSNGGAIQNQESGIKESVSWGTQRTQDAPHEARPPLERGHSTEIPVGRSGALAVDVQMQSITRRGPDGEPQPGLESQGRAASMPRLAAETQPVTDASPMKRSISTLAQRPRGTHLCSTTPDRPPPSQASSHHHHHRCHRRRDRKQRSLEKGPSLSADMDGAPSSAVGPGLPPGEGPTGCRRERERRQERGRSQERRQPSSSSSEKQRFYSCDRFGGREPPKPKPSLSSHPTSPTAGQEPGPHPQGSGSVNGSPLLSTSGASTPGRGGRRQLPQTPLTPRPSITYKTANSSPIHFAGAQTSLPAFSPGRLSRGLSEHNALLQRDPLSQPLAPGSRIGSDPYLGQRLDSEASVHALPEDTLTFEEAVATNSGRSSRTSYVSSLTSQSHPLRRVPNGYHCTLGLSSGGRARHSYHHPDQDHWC
Sequence (Q02410 whole entry): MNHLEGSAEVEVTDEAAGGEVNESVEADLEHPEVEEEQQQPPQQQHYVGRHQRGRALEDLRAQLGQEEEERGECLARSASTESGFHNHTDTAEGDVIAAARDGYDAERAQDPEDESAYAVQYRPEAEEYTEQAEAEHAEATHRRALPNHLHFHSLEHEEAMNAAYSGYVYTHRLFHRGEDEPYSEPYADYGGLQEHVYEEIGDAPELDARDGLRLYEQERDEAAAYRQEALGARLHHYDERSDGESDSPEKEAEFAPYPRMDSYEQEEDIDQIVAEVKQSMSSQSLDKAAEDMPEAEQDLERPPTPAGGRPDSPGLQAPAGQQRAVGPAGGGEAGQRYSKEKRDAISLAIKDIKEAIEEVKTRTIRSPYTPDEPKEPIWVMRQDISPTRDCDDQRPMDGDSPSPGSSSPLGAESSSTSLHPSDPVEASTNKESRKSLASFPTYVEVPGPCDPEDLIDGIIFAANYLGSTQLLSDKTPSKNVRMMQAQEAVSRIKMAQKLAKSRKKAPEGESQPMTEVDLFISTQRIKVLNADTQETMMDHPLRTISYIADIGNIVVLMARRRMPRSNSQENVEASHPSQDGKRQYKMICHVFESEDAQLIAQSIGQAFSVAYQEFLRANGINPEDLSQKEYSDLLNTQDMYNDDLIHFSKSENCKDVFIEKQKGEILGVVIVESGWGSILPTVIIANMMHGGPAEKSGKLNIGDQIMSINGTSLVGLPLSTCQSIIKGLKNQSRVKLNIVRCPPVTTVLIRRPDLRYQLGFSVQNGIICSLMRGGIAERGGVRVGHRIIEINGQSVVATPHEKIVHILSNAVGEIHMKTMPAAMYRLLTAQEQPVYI
Format: protein assay
Active and inactive are the calls of the source.
test readout: IC50

These solved cases illustrate the format of a correct answer.
compound	IC50
CCN(C(=O)CN1C(=O)S/C(=C\C=C\c2ccccc2)C1=O)C1CCS(=O)(=O)C1 (stereo unspecified)	> 56.8 µM (not active)
CC1=C(C)C[S+]([O-])N(S(=O)(=O)c2ccc(Cl)cc2)C1 (stereo unspecified)	30.9 µM (active)
CCOC(=O)c1c2ccc(OCC(=O)NN)cc2n2ccccc12	2.73 µM (active)
Cc1cc(=O)oc2cc(NC(=O)c3cccc(Br)c3)ccc12	5.32 µM (active)

Recorded result, O=C(Nc1ccc(F)cc1)C1=CC(=O)N2CCN=C2S1 , IC50: 10.7 µM (active)

Consider O=C(COC(=O)CNC(=O)c1ccc(-c2ccccc2)cc1)NCc1ccco1 . Its measured IC50 is 5.35 µM (active)

---

system name: Heat shock factor protein 1 (Mus musculus, UniProt P38532)
Sequence (P38532 whole entry): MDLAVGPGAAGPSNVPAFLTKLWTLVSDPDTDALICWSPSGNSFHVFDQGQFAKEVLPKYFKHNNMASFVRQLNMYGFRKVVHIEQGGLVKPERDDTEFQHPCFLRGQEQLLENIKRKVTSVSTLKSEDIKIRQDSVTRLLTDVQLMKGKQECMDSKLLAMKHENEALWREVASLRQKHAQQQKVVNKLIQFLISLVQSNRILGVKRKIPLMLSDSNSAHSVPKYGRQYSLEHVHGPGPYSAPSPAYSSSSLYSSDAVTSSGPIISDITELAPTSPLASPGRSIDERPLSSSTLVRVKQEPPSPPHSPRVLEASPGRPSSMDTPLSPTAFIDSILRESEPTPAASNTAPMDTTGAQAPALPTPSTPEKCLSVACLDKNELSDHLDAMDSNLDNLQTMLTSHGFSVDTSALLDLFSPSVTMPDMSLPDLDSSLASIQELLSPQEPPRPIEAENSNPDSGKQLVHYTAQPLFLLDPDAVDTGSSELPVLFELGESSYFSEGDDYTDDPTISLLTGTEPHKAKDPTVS
experiment description: inhibition of MG132-induced HSE-luciferase signal, confirmation, cell-based, NIH3T3, luminescence, dose retest (AID 2382);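 also: NIH3T3 fibroblasts with HSF1-driven luciferase reporter stressed by proteasome inhibitor MG132; luminescence from HSF1-driven luciferase expression after 8 hours of MG132 stress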
Type: functional
The source made the active and inactive calls.
Each record here notes measured EC50.

compound	EC50
Cc1cc(C)n(C(=O)c2ccncc2)n1	> 195 µM (not active)
c1ccc(-c2nn[nH]n2)nc1	> 195 µM (not active)
O=C(COC(=O)c1cc[n+]([O-])cc1)Nc1cccc(Cl)c1Cl	23 µM (active)
Cc1cccc(OCC(=O)OC2CCN(C)CC2)c1	> 195 µM (not active)
Nc1cccc(/C=C/C(=O)O)c1	> 195 µM (not active)
COc1ccc(/C=C/C(=O)NC(=S)NCCc2ccc(OC)c(OC)c2)cc1	13.6 µM (active)

Please look at the following compound next.
# EC50 of O=c1oc2ccccc2cc1-c1cn(-c2ccccc2)c(S)n1 = < 0.16 µM (active)

---

system name: Sentrin-specific protease 8 (Homo sapiens, UniProt Q96LD8);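 also: luminescence read-out of SENP8 inhibition, dose-response confirmation following an ultra-high-throughput screen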
Sequence (Q96LD8 whole entry): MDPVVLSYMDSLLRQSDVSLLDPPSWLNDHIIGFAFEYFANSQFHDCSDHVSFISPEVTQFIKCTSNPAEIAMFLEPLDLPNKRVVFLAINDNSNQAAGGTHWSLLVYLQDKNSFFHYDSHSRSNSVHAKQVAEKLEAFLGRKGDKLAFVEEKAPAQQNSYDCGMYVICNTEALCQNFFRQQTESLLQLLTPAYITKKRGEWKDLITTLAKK
Assay type: functional
Active and inactive are the calls of the source.
I would appreciate it if you answered using one of these outcomes: active, inactive

query: What call does the record list for CC(C)C(=O)Nc1ccc2nn(-c3ccc(F)cc3)nc2c1 ?
result: active

query: For this molecule, state the assay outcome: NC(=O)c1ccccc1NC(=O)/C=C/c1c(Cl)cccc1Cl
result: inactive

query: Tell me the recorded outcome of this test for CCn1c(O)c(N=Nc2ccc3ccccc3n2)c2ccccc21 .
result: active

query: Give the logged outcome of this assay for the following molecule: COC(=O)c1ccc(NC(=O)Nc2ccc(F)c(Cl)c2)cc1
result: inactive

query: Entry Cc1cc(C(=O)N/N=C/C(Cl)=C/c2ccccc2)c(C)o1 : call = ?
result: inactive
